Test system: TK-10 renal
assay.name: NCI-60 one-dose screen, 48 h (100 = growth as untreated, 0 = no growth, -100 = all killed)
cond: 10 µM unless noted
Compounds without any hit were thinned out: in the full panel of roughly 83,000, 20% have a hit.

smiles.text	system.under.test	growth (%)
CN1CCN(Cc2ccc(NC(=O)c3cncc(C#Cc4cnc5ccc(NCCCO)nn45)c3)cc2C(F)(F)F)CC1	TK-10 renal	-28.7
O=C(CSc1nc2ccccc2c(=O)n1-c1ccccc1)Nc1cccc(C(=O)/C=C/c2ccccc2Cl)c1	TK-10 renal	138
Cn1ccnc1C(=O)/C=C/c1ccc(NC(=O)c2ccc(F)cc2)cc1	TK-10 renal	89.5
Cn1ccnc1C(=O)/C=C/c1ccc(CNC(=O)c2ccc(S(F)(F)(F)(F)F)cc2)cc1	TK-10 renal	91.1
CC(C)(C)c1ccc(CC(=O)Nc2sc3c(c2C(N)=O)CCC(=O)C3)cc1	TK-10 renal	16.6
Cc1nn(-c2ccccc2)c2ncnc(N/N=C/c3ccccc3O)c12	TK-10 renal	40.6
COC(=O)c1ccc(NC2=C/C(=N/S(=O)(=O)c3ccc(C(=O)O)cc3)c3ccccc3C2=O)cc1	TK-10 renal	156
C=CC(=O)N1CC=C(c2cc3c(N[C@H](C)c4ccccc4)ncnc3[nH]2)CC1	TK-10 renal	-3.79
COc1cc2oc(-c3cccc(C(=O)N[C@@H](CC(C)C)C(=O)OC(C)(C)C)c3)cc(=O)c2c(OC)c1OC	TK-10 renal	95

----------
Test system: NCI-H226 lung
assay.name: NCI-60 one-dose screen, 48 h (100 = growth as untreated, 0 = no growth, -100 = all killed)
cond: 10 µM unless noted
Compounds without any hit were thinned out: in the full panel of roughly 83,000, 20% have a hit.
Label 1 when growth is at or above 80%; anything below gets 0.

molecule	group.label
COc1ccc2c(c1)c(CC(=O)[Se]CC#N)c(C)n2C(=O)c1ccc(Cl)cc1	0
C=C=COc1cccc(/C(N)=N/C(N)=N/c2nc3ccccc3s2)c1	1
COc1ccc(/C=C(\C#N)C(=O)N2c3ccccc3Sc3ccc(SC)cc32)cc1F	1
COc1cc2nc(Cl)nc(Nc3cccc(C4=Nc5c(N)nc(N)nc5NC(c5ccc(Cl)cc5)C4)c3)c2cc1OC (centres undefined)	1
C[C@@H](Nc1c(C#N)cnc2ccc(-c3cnc(Cl)c(NS(C)(=O)=O)c3)cc12)c1ccccc1	0
N#Cc1cccc(CN2CCC3=C(C2)C(=O)N(Cc2ccc(Cl)cc2)C2=NCCN23)c1	0
Cc1ccc(-c2cc3nc(C(Cl)Cl)nc(C)n3n2)cc1	1
Nc1nc(Nc2ccccc2SSc2ccccc2Nc2nc(N)nc(-c3ccc4ccccc4c3)n2)nc(-c2ccc3ccccc3c2)n1	0
COc1ccccc1-n1cc(C#N)c(N)c1C(=O)c1ccc(Br)cc1	1

----------
Test system: LOX IMVI melanoma
assay.name: NCI-60 one-dose screen, 48 h (100 = growth as untreated, 0 = no growth, -100 = all killed)
cond: 10 µM unless noted
About 83,000 compounds went through this panel and 20% of them were active in at least one assay; those are over-represented in the sample as a whole.
observable: growth (%)

molecule	u	meas.value
COCCNc1ccc2ncc(C#Cc3cncc(C(=O)Nc4ccc(CN5CCN(C)CC5)c(C(F)(F)F)c4)c3)n2n1	%	-87.8
COc1ccc(C(=O)Nc2ncc(Cc3ccccc3Cl)s2)cc1	%	1.15
CS(=O)(=O)Nc1cc(-c2ccc3ncc(C#N)c(Nc4cccc(Cl)c4F)c3c2)cnc1Cl	%	-62.2
O=C1[C@H]2Cc3c([nH]c4ccccc34)[C@@H](c3ccc(Cl)cc3)N2C(=O)CN1C1CCN(Cc2ccccc2)CC1	%	17.4
Cn1ccnc1C(=O)/C=C/c1ccc(CNC(=O)c2ccc(Cl)cc2)cc1	%	-89.2
COc1cc(-c2nc(-c3ccccc3)[nH]c2-c2ccnc(NCCCNS(=O)(=O)c3cccc(F)c3)n2)ccc1Cl	%	35.5
C#CCNC1CCC(c2csc(C#C)n2)=C1C (centres undefined)	%	-90.7
COc1cc(/C=C2\C(=O)Nc3ccccc32)ccc1OCc1ccc(Cl)cc1	%	99.8
CC/C(=C/c1c(O)cccc1OC)c1ccc2c(OC)cccc2[o+]1	%	95

Source listed as PubChem BioAssay (NCI).
